- system under test: HLA-A*03:01
- protocol description: IEDB peptide-MHC binding, purified MHC/competitive/radioactivity; bounds were set here for any values at or beyond the usual limits of such assays
- applied conditions: source organism: unidentified
pIC50: −log10 of the molar value.
recorded metric: pIC50

Please review the entries below; each comes with its answer.
RAAAPPLPR; 6.76
RLADKSVLVCKG; 6.46
LDAGLKKQFYK; 6.02
ALSPVLIPR; 8.32
KISFPIIAK; 9.11

I. GSTCIYGGAPK
II. RVFPSNVICKG
Problem: When I and II are compared, which has the higher number for pIC50? Selection: enter the item's label.
Result: I
(I: 6.18, II: 5.74)

----------
- system under test: HLA-A*03:01
- protocol description: IEDB peptide-MHC binding, purified MHC/competitive/radioactivity; bounds were set here for any values at or beyond the usual limits of such assays
- applied conditions: source organism: unidentified
pIC50: −log10 of the molar value.
recorded metric: pIC50

LNDRGGSVIK; 5.00
GITCPQVLIQK; 6.09
SLFSTSSKL; 5.06
AVYEGHVSCVKG; 4.91
RTGVPPTIR; 5.59
GVVCPVSDILYK; 6.69
RAAPPPPPR; 7.25
SVRELNFTK; 6.92
GATCELPLQK; 4.88
STLTDSLVCGK; 7.51

A. RAVPGPPAR
B. PSVGPVLGR
Problem: // compare measured pIC50 between A and B ; output the lower one Record your answer as the label of the chosen record.
Result: B
(B: 5.66, A: 6.43)

A. RIKFSDDRVCKG
B. NTCQDAAIVGYK
C. QDKVKTLTGK
D. QTALVEIIK
E. IISIVTGLK
Problem: Please put the entries in order of rising pIC50. Give the order by naming the labels one after another as requested.
Result: A, C, D, B, E
(A: 4.59, C: 5.00, D: 5.57, B: 5.88, E: 7.85)

----------
- system under test: HLA-B*27:05
- protocol description: IEDB peptide-MHC binding, purified MHC/competitive/radioactivity; bounds were set here for any values at or beyond the usual limits of such assays
- applied conditions: source organism: unidentified
pIC50: −log10 of the molar value.
recorded metric: pIC50

Here's what some known entries look like.
LKRDKLFEK; 5.00
TRSTGLLGVK; 5.82
TRLVLDPVR; 6.62
ARCGGALLAL; 8.28
ARVKEVEEMCKG; 5.50
ERAGPLSGKKF; 7.80

a. RRNDKQLCIG
b. RRVYLEGRCVG
c. PRPRGGSDL
d. RGLASPPPVR
Problem: Arrange by pIC50, high to low. API: response body holds the labels in the requested order.
Result: b, a, c, d
(b: 7.62, a: 6.97, c: 6.33, d: 6.08)

----------
- system under test: HLA-B*07:02
- protocol description: IEDB peptide-MHC binding, purified MHC/competitive/radioactivity; bounds were set here for any values at or beyond the usual limits of such assays
- applied conditions: source organism: unidentified
pIC50: −log10 of the molar value.
recorded metric: pIC50

A selection of reference data follows.
PVEKNTVEL; 5.04
LGPRAAAAGAL; 7.48
RPRWGAAAS; 8.44
FPRVSTPLA; 7.01
PVRPAAAAATAL; 5.49
PGREAVSKL; 4.94
WSVMDQDSL; 5.00

P. LPPPARPPI
Q. PGRGARRLLALV
Problem: Task for the reader: decide whether P or Q has the larger pIC50. API: response body contains the label of the selected item.
Result: P
(P: 6.95, Q: 6.15)
